The origin of these recorded values is PubChem BioAssay (Tox21).

# Protocol Notes: qHTS assay to identify small molecule antagonists of the constitutive androstane receptor (CAR) signaling pathway - cell viability counter screen (AID 1224837); further: nearly all actives have a fitted effect of over 45% in size
# Setup Conditions: HepG2-CYP2B6-hCAR viability, CellTiter-Fluor, 23 h, co-treated with 50 nM CITCO; series mostly up to 92.4 µM
Inconclusive results are not listed. Active and inactive are the calls of the source. The call rests on the fitted dose curve; in most records, active means well fitted cell-killing curve with a large enough effect in the repeat runs; inconclusive means weak or mixed curves, or effect the other way; inactive means flat fitted curve, though single readings scatter.
Outcomes you can answer with include only these: active, inactive

A selection of reference data follows.
Q: Recorded test call requested for `COC(=O)CC(=O)OC`
Result: inactive

Q: Recorded test call requested for `Oc1c(Cl)ccc(Cl)c1Cl`
Result: inactive

Q: Recorded test call requested for `CCCCCC=O`
Result: inactive

Q: Recorded test call requested for `Cc1ccc(C(C)(C)C)cc1`
Result: inactive

Next:
Q: Recorded test call requested for `C[C@]12C=CC(=O)C=C1CC[C@H]1[C@@H]3C[C@@H](O)[C@](O)(C(=O)CO)[C@@]3(C)C[C@H](O)[C@@]12F`
Result: inactive

Q: Recorded test call requested for `CC1(C)NC(=O)N(c2ccc([N+](=O)[O-])c(C(F)(F)F)c2)C1=O`
Result: inactive

Q: Recorded test call requested for `CCC/C=C/C=O`
Result: inactive

Q: Recorded test call requested for O=C(O)COCCN1CCN(C(c2ccccc2)c2ccc(Cl)cc2)CC1 (stereo unspecified)
Result: inactive

Q: Recorded test call requested for `O=C(CCCN1CCC(O)(c2ccc(Cl)cc2)CC1)c1ccc(F)cc1`
Result: active

Q: Recorded test call requested for `C[C@]12CC[C@@H]3c4ccc(O)cc4CC[C@H]3[C@@H]1CC[C@@H]2O`
Result: inactive

Q: Recorded test call requested for `CC(C)(Oc1ccc(Cl)cc1)C(=O)O`
Result: inactive
